System: Micrococcus flavus
Assay: Antibacterial activity against Micrococcus flavus ATCC 10240 at […] degC measured after 24 hr by microdilution method
Type: functional
Settings: ATCC 10240, 24 h
value kind: MIC (µM)

smiles code: COc1cc(Cc2nnc(Nc3ccc([N+](=O)[O-])cc3)s2)c(S(=O)(=O)N2CCCC2)cc1OC
experimental target: Micrococcus flavus
MIC (µM): 19.8
--
smiles code: COc1cc(Cc2nnc(Nc3ccc(Cl)cc3)s2)c(S(=O)(=O)N2CCCC2)cc1OC
experimental target: Micrococcus flavus
MIC (µM): 20.2
--
smiles code: COc1cc(Cc2nnc(Nc3ccc(Cl)cc3)s2)c(S(=O)(=O)N2CCCCC2)cc1OC
experimental target: Micrococcus flavus
MIC (µM): 19.7

* * *

Test system: Aspergillus versicolor
Test: Antifungal activity against Aspergillus versicolor ATCC 11730 at 28 degC measured after 72 hr by microdilution method
Assay type: functional
Settings: ATCC 11730, 72 h
value kind: MIC (µM)

smiles code: COc1cc(Cc2nnc(Nc3ccccc3)s2)c(S(=O)(=O)N(C)C)cc1OC
MIC [µM]: 11.5

[A] COc1cc(Cc2nnc(Nc3ccc(C(F)(F)F)cc3)s2)c(S(=O)(=O)N(C)C)cc1OC
[B] COc1cc(Cc2nnc(Nc3ccc(Cl)cc3)s2)c(S(=O)(=O)N2CCN(C)CC2)cc1OC
Input line: Lab notebook, comparison: A versus B , higher MIC goes to which? Selection: enter the item's label.
Output line: B
(B: 38.2 µM, A: 9.9 µM)

* * *

Tested on: Talaromyces funiculosus
Assay: Antifungal activity against Talaromyces funiculosus ATCC 36839 at 28 degC measured after 72 hr by microdilution method
Format: functional
Conditions: ATCC 36839, 72 h
value kind: MFC (µM)
The response must be a number in µM with no trailing unit.

Please review the following examples before continuing.
compound: COc1cc(Cc2nnc(Nc3ccc(Cl)cc3)s2)c(S(=O)(=O)N2CCCC2)cc1OC
experimental target: Talaromyces funiculosus
MFC (µM): 20.2

compound: COc1cc(Cc2nnc(Nc3ccccc3)s2)c(S(=O)(=O)N2CCCC2)cc1OC
experimental target: Talaromyces funiculosus
MFC (µM): 43.4

compound: c1ccc(-c2ccc(C(c3ccccc3)n3ccnc3)cc2)cc1 (stereo unspecified)
experimental target: Talaromyces funiculosus
MFC (µM): 800

compound: COc1cc(Cc2nnc(Nc3ccc(C(F)(F)F)cc3)s2)c(S(=O)(=O)N2CCCC2)cc1OC
experimental target: Talaromyces funiculosus
MFC (µM): 37.8

compound: COc1cc(Cc2nnc(Nc3ccccc3)s2)c(S(=O)(=O)N(C)C)cc1OC
experimental target: Talaromyces funiculosus
MFC (µM): 23

Then this compound:
Input line: Give MFC for `COc1cc(Cc2nnc(Nc3ccc(C(F)(F)F)cc3)s2)c(S(=O)(=O)N2CCN(C)CC2)cc1OC`
Output line: 17.9
